Source listed as paper PMC7782867.

# System Name: T1, CRIPT (Homo sapiens)
# T1 chain: YKQTSV
# Assay Notes: stopped-flow
Measurement Kind: pKd
By convention, pKd is the negative base-10 log of a molar concentration.

[in] Would you kindly share the measured pKd for DLG4 PDZ3 PDZ3 (protein) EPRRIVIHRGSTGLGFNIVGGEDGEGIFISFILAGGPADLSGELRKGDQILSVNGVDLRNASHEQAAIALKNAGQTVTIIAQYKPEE ?
[out] 6.40
